- ASSAY_OVERVIEW: Compound stability in human liver microsomes
- Type: in vitro ADME
- CONDITION_CONTEXT: liver microsomes, pH 7.4; in vivo CLint extrapolated from human liver microsome incubation
- Method: The LC/MS/MS system used in the analysis consists of an Agilent 1200 Series vacuum degasser, binary pump, well-plate autosampler, thermostatted column compartment, the Agilent G6430 Triple Quadrupole Mass Spectrometer with an electrosprayionization (ESI) source. Quantitative analysis was carried out using MRM mode. The parameters for MRM transitions are in the Table A. […] The concentrations of compounds in the incubation mixtures of human or rat liver microsomes were determined by a LC/MS/MS method. […]
MEASUREMENT_KIND: CLint scaled at 5 μM (mL/min/kg)

Some solved cases for reference:
molecule="CC(O)Cc1nc2cc(Nc3ncc(Cl)c(NC4CCN(c5ccc(C#N)nn5)CC4)n3)ccn2n1 (centres unmarked)" result_value=36.5
molecule=CC(C)(O)Cc1cnc2cc(Nc3ncc(Cl)c(NC4CCN(c5ccc(C#N)nn5)CC4)n3)ccn12 result_value=42.7
molecule=CC(C)(O)c1cn2ccc(Nc3ncc(Cl)c(NC4CCN(c5ccc(C#N)nn5)CC4)n3)cc2n1 result_value=91.8
molecule="CCC1CN(c2ccc(C#N)nn2)CCC1Nc1nc(Nc2ccn3c(C)cnc3c2)ncc1Cl (centres unmarked)" result_value=30.9

A. CN(C)C(=O)c1nc2cc(Nc3ncc(Cl)c(NC4CCN(c5ccc(C#N)cn5)CC4)n3)ccn2n1
B. Cc1nc2cc(Nc3ncc(Cl)c(NC4CCN(c5ccc(C#N)nn5)CC4)n3)ccc2n1C
Req: Compare A and B and name the one whose reported CLint scaled at 5 μM is smaller. Respond with the label that goes with your answer.
Resp: B
(B: 33 mL/min/kg, A: 115 mL/min/kg)

1. CCC1CN(c2ccc(C#N)nn2)CCC1Nc1nc(Nc2ccn3c(C4CC4)cnc3c2)ncc1Cl (centres unmarked)
2. CCCn1nnc2cc(Nc3ncc(Cl)c(NC4CCN(c5ccc(C#N)nn5)CC4)n3)ccc21
Req: Endpoint returns the identifier whose CLint scaled at 5 μM is numerically larger, either 1 or 2 . Your choice should be expressed through its label.
Resp: 2

P. CC(C)(O)Cc1nc2ccc(Nc3ncc(Cl)c(NC4CCN(c5ccc(C#N)cn5)CC4)n3)cn2n1
Q. CCC1CN(c2ccc(C#N)cn2)CCC1Nc1nc(Nc2ccn3c(C)cnc3c2)ncc1Cl (centres unmarked)
R. CC(C)(O)c1nc2cc(Nc3ncc(Cl)c(NC4CCN(c5ccc(C#N)cc5)CC4)n3)ccn2n1
Req: Arrange by CLint scaled at 5 μM, high to low. To answer, write out the labels according to the requested order.
Resp: Q, P, R

1. CC(C)(O)Cn1cnc2cc(Nc3ncc(Cl)c(NC4CCN(c5ccc(C#N)cn5)CC4)n3)ccc21
2. Cn1nnc2cc(Nc3ncc(Cl)c(NC4CCN(c5ccc(C#N)nn5)CC4)n3)ccc21
3. CC(C)(O)c1cnc2cc(Nc3ncc(Cl)c(NC4CCN(c5ccc(C#N)cn5)CC4)n3)ccn12
4. CC(C)(O)Cc1nc2ccc(Nc3ncc(Cl)c(NC4CCN(c5ccc(C#N)nn5)CC4)n3)cn2n1
5. CC(C)(O)Cn1nnc2cc(Nc3ncc(Cl)c(NC4CCN(c5ccc(C#N)cn5)CC4)n3)ccc21
Req: Descending sort on CLint scaled at 5 μM required. API: response body holds the labels in the requested order.
Resp: 3, 1, 2, 4, 5
